# target_desc: GLP-1 Receptor (Homo sapiens)
# Sequence (P43220 24-463, species assumed): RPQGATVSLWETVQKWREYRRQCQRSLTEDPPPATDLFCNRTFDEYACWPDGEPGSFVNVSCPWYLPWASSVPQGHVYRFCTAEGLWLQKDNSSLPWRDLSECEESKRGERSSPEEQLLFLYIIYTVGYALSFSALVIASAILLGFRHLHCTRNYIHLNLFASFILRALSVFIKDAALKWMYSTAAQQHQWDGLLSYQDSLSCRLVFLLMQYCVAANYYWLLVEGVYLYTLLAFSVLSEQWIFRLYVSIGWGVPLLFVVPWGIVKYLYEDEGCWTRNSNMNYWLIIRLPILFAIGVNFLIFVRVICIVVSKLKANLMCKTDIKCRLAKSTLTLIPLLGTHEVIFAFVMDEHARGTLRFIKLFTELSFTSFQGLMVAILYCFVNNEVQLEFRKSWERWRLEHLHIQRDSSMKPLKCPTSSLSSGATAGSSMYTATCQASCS
# experiment_summary: GLP-1R agonist cAMP stimulation assay (HEK293/GLP1R/CRE-LUC cells, cAMP dynamic 2 Kit)
# measurement_parameters: HEK293/CRE-Luc cell line stably expressing the GLP-1 Receptor, 30 min at 37° C.
Would you kindly list pEC50 for each of these molecules?
One number for each entry, as −log10 of the molar value.

// worked examples, pEC50 included
COc1ccc(C(=O)Nc2ccc3c(c2)nc(CN2CCC(c4cccc(OCc5ccc(Cl)cc5F)n4)CC2)n3C[C@@H]2CCO2)cn1 [Compound 175a] ... 8.82
C[C@]1(c2ccc(Cl)cc2F)Oc2cccc(C3CCN(Cc4nc5cc(-c6noc(=O)[nH]6)ncc5n4C[C@@H]4CCO4)CC3)c2O1 [Compound 375a] ... 11.20
COCCn1c(CN2CCC(c3cccc4c3OC(C)(c3ccc(Cl)cc3F)O4)CC2)nc2cc(-c3nnc(C(F)(F)F)[nH]3)cnc21 (stereo not drawn) ... 9.12
O=C(Nc1ccc2c(c1)nc(CN1CCC(c3cccc(OCc4ccc(Cl)cc4F)n3)CC1)n2C[C@@H]1CCO1)[C@@H]1COC2(CCC2)C1 [Compound 201a] ... 8.51

Parameters: items (list). Returns: pEC50 for each item.
1. O=C1CCCN1c1ccc2c(c1)nc(CN1CCC(c3cccc(OCc4ccc(Cl)cc4F)n3)CC1)n2C[C@@H]1CCO1 [Compound 119a]
2. CC1(C)CCC(C(=O)Nc2ccc3c(c2)nc(CN2CCC(c4cccc(OCc5ccc(Cl)cc5F)n4)CC2)n3C[C@@H]2CCO2)CO1 (stereo partly drawn) [Compound 192a]
3. Fc1cc(Cl)ccc1COc1nc(C2CCN(Cc3nc4cc(-c5nnc(C(F)(F)F)[nH]5)ncc4n3C[C@@H]3CCO3)CC2F)ccc1F (stereo partly drawn) [Compound 515a]
4. Fc1cc(Cl)ccc1COc1cccc(C2CCN(Cc3nc4cc(-c5cn[nH]n5)ccc4n3C[C@@H]3CCO3)CC2)n1 [Compound 149a]
5. C[C@]1(c2ccc(Cl)cc2F)Oc2cccc(C3CCN(Cc4nc5cc(C(=O)O)nnc5n4C[C@@H]4CCO4)CC3)c2O1 [Compound 431a]

A)
8.14
8.21
10.24
8.32
9.96

Parameters: items (list). Returns: pEC50 for each item.
1. C[C@]1(c2ccc(Cl)cc2F)Oc2cccc(C3CCN(Cc4nc5cc(-c6nnc(C(F)(F)F)[nH]6)ncc5n4C[C@@H]4CCCO4)CC3)c2O1 [Compound 426a]
2. CC1(c2ccc(Cl)cc2F)Oc2cccc(C3CCN(Cc4nc5cc(-c6nnn[nH]6)ccc5n4C[C@@H]4CCO4)CC3)c2O1 (stereo partly drawn) [Compound 232a]
3. CO[C@@H](C)Cn1c(CN2CCC(c3cccc4c3O[C@@](C)(c3ccc(C#N)cc3F)O4)CC2)nc2cc(-c3nnc(C(F)(F)F)[nH]3)ncc21 [Compound 454a]
4. Fc1cc(Cl)ccc1COc1ccc(F)c(N2CCN(Cc3nc4cc(-c5nnc(C(F)(F)F)[nH]5)cnc4n3C[C@@H]3CCO3)CC2)n1 [Compound 513a]
5. CC1(c2ccc(Cl)cn2)Oc2cccc(C3CCN(Cc4nc5cc(-c6noc(=O)[nH]6)ncc5n4C[C@@H]4CCO4)CC3)c2O1 (stereo partly drawn) [Compound 343a]
6. Fc1cc(Cl)ccc1COc1cccc(C2CCN(Cc3nc4cc(-c5cn(C6CCCOC6)nn5)ccc4n3C[C@@H]3CCO3)CC2)n1 (stereo partly drawn) [Compound 209a]

A)
10.06
9.80
9.77
10.19
10.10
8.49

Parameters: items (list). Returns: pEC50 for each item.
1. CC1(c2ccc(Cl)cc2F)Oc2cccc(C3CCN(Cc4nc5cc(-c6nnc(S(C)(=O)=O)[nH]6)ccc5n4C[C@@H]4CCO4)CC3)c2O1 (stereo partly drawn) [Compound 253a]
2. Fc1cc(Cl)ccc1COc1cccc(C2CCN(Cc3nc4cc(/C=C/c5cccnc5)ccc4n3C[C@@H]3CCO3)CC2)n1 [Compound 217a]
3. CC1(c2ccc(Cl)cc2F)Oc2c(F)ccc(C3CCN(Cc4nc5cc(-c6nnc(C(F)(F)F)[nH]6)ncc5n4C[C@@H]4CCO4)CC3)c2O1 (stereo partly drawn) [Compound 459a]
4. Cc1nnc(-c2cc3nc(CN4CCC(c5cccc6c5OC(c5ccc(Cl)cc5F)CO6)CC4)n(C[C@@H]4CCO4)c3cn2)[nH]1 (stereo partly drawn) [Compound 468a]

A)
[9.19, 8.34, 11.06, 9.28]

Parameters: items (list). Returns: pEC50 for each item.
1. O=C(O)c1ccc2c(c1)nc(CN1CC=C(c3cccc(OCc4ccc(Cl)cc4F)n3)CC1)n2C[C@@H]1CCO1 [Compound 111a]
2. Fc1cc(Cl)ccc1COc1nc(N2CCN(Cc3nc4cc(-c5nnc(C(F)(F)F)[nH]5)cnc4n3C[C@@H]3CCO3)CC2)ncc1F [Compound 511a]
3. CC1(c2ccc(Cl)cc2F)Oc2cccc(C3CCN(Cc4nc5cc(-c6n[nH]c(=O)s6)ccc5n4C[C@@H]4CCO4)CC3)c2O1 (stereo partly drawn) [Compound 221a]

A)
8.96
10.10
8.13

Parameters: items (list). Returns: pEC50 for each item.
1. CC1(c2ccc(Cl)cc2F)Oc2cc(F)cc(C3CCN(Cc4nc5cc(-c6nnc(C(F)(F)F)[nH]6)ncc5n4C[C@@H]4CCO4)CC3)c2O1 (stereo partly drawn) [Compound 441a]
2. CC1(c2ccc(Cl)cc2F)Oc2cccc(C3CCN(Cc4nc5cc(-c6cn[nH]c6)ccc5n4C[C@@H]4CCO4)CC3)c2O1 (stereo partly drawn) [Compound 234a]

A)
10.60
8.43

====

# target_desc: GLP-1 Receptor (Homo sapiens)
# experiment_summary: GLP-1R agonist cAMP stimulation assay (HEK293/GLP1R/CRE-LUC cells, cAMP dynamic 2 Kit)
# measurement_parameters: HEK293/CRE-Luc cell line stably expressing the GLP-1 Receptor, 30 min at 37° C.
Would you kindly list log10 EC50 for each of these compounds?
Use the decimal logarithm of EC50 (nM).

// worked examples, log10 EC50 included
N#Cc1ccc(COc2cc(N3CCN(Cc4nc5cc(-c6nnc(C(F)(F)F)[nH]6)ncc5n4C[C@@H]4CCO4)CC3)ccc2F)c(F)c1 [Compound 469a] ... -1.06
CC1(c2ccc(C#N)cc2F)Oc2cccc(C3CCN(Cc4nc5cc(-c6noc(=O)[nH]6)cnc5n4C[C@@H]4CCO4)CC3)c2O1 (stereo partly drawn) [Compound 329a] ... -0.60

Parameters: items (list). Returns: log10 EC50 for each item.
1. FC(F)(F)c1nnc(-c2cnc3c(c2)nc(CN2CCC(c4cccc5c4OC[C@@H](c4ccc(Cl)cc4)O5)CC2)n3C[C@@H]2CCO2)[nH]1 [Compound 408a]
2. CC1(c2ccc(Cl)cc2F)Oc2cccc(C3CCN(Cc4nc5cc(-c6cn(CCO)nn6)ccc5n4C[C@@H]4CCO4)CC3)c2O1 (stereo partly drawn) [Compound 228a]
3. Cn1nc(-c2ccc3c(c2)nc(CN2CCC(c4cccc5c4OC(C)(c4ccc(Cl)cc4F)O5)CC2)n3C[C@@H]2CCO2)oc1=O (stereo partly drawn) [Compound 220a]
4. CC1(c2ccc(Cl)cn2)Oc2cccc(C3CCN(Cc4nc5cc(-c6n[nH]c(C(F)(F)F)n6)ncc5n4C[C@@H]4CCO4)CC3)c2O1 (stereo partly drawn) [Compound 344a]
5. O=C(Nc1ccc2c(c1)nc(CN1CCC(c3cccc(OCc4ccc(Cl)cc4F)n3)CC1)n2C[C@@H]1CCO1)N1CCC(O)C1 (stereo partly drawn) [Compound 207a]
6. O=c1[nH]c(-c2cnc3c(c2)nc(CN2CCC(c4cccc(OCc5ccc(Cl)cc5F)n4)CC2)n3C[C@@H]2CCO2)no1 [Compound 328a]
7. C[C@]1(c2ccc(C#N)cc2F)Oc2cccc(C3CCN(Cc4nc5cc(-c6noc(=O)[nH]6)ncc5n4C[C@@H]4CCO4)CC3)c2O1 [Compound 433a]
8. Fc1cc(Cl)ccc1C1COc2cccc(C3CCN(Cc4nc5cc(-c6nnc(C(F)(F)F)[nH]6)ncc5n4C[C@@H]4CCO4)CC3)c2O1 (stereo partly drawn) [Compound 457a]

A)
1: -0.55; 2: -0.72; 3: 0.45; 4: -1.66; 5: -0.41; 6: -0.43; 7: -1.89; 8: -0.92

====

Would you kindly list EC50 for each of these compounds?
# target_desc: GLP-1 Receptor (Homo sapiens)
# experiment_summary: GLP-1R agonist cAMP stimulation assay (HEK293/GLP1R/CRE-LUC cells, cAMP dynamic 2 Kit)
# measurement_parameters: HEK293/CRE-Luc cell line stably expressing the GLP-1 Receptor, 30 min at 37° C.
One number for each entry, in nM.

C[C@]1(c2ccc(Cl)cn2)Oc2cccc(C3CCN(Cc4nc5cc(-c6nnc(C#N)[nH]6)nnc5n4C[C@@H]4CCO4)CC3)c2O1 [Compound 482a] ... 0.032
Cn1cc(-c2ccc3c(c2)nc(CN2CCC(c4cccc5c4OC(C)(c4ccc(Cl)cc4F)O5)CC2)n3C[C@@H]2CCO2)cn1 (stereo partly drawn) [Compound 233a] ... 4

Parameters: items (list). Returns: EC50 for each item.
1. CC1(c2ccc(Cl)cc2F)Oc2cccc(C3CCN(Cc4nc5cc(-c6noc(=O)[nH]6)c(F)cc5n4C[C@@H]4CCO4)CC3)c2O1 (stereo partly drawn) [Compound 222a]
2. CC1(c2ccc(Cl)cc2)Oc2cccc(C3CCN(Cc4nc5cc(-c6nnc(C(F)(F)F)[nH]6)ccc5n4C[C@@H]4CCO4)CC3)c2O1 (stereo partly drawn) [Compound 226a]
3. CC1(c2ccc(Cl)cc2F)Oc2cccc(C3CCN(Cc4nc5cc(-c6nnc(C(F)(F)F)[nH]6)cnc5n4C[C@@H]4CCO4)CC3)c2O1 (single isomer, unassigned) [Compound 224c]
4. O=C(Nc1ccc2c(c1)nc(CN1CCC(c3cccc(OCc4ccc(Cl)cc4F)n3)CC1)n2C[C@@H]1CCO1)C(F)n1cccn1 (stereo partly drawn) [Compound 194a]

A)
1: 0.55; 2: 0.13; 3: 0.014; 4: 0.47
